Source of measurements: the supplement of paper PMC11451515

System: P12-Ichikawa
assay-protocol: AUC of viability dose-response curve (% viability x log10 dose units); higher = less sensitive
experimental-parameters: HPLM + 10% dialyzed FBS; 48 h
value-type: AUC of viability dose-response curve

smiles_repr=Cc1cnn(C)c1C(=O)Nc1cc(Nc2ccc3c(/C=C/c4ccccn4)n[nH]c3c2)ccc1F value_type="AUC of viability dose-response curve" numeric_value=424
smiles_repr=CNCCCC12CCC(c3ccccc31)c1ccccc12 value_type="AUC of viability dose-response curve" numeric_value=442
smiles_repr=C[C@]12CCC(=O)C=C1CC[C@@H]1[C@@H]2[C@@H](O)C[C@@]2(C)[C@H]1CC[C@]2(O)C(=O)CO value_type="AUC of viability dose-response curve" numeric_value=447
smiles_repr=C[C@@H](Oc1cc(-c2cnn(C3CCNCC3)c2)cnc1N)c1c(Cl)ccc(F)c1Cl value_type="AUC of viability dose-response curve" numeric_value=419
smiles_repr=Cc1c(C)n(Cc2ccc(-c3ccccc3C(=O)O)cc2)c2ccc(C(=O)N[C@@H](C)c3ccc([N+](=O)[O-])cc3)cc12 value_type="AUC of viability dose-response curve" numeric_value=425
smiles_repr=NC(=O)c1cccnc1 value_type="AUC of viability dose-response curve" numeric_value=451

====

Tested on: NOMO1
assay-protocol: cell viability relative to DMSO control; higher = less cytotoxic
experimental-parameters: RPMI 5 mM glucose + 10% FBS; 48 h; 0.0632 µM
value-type: cell viability

molecule=O=C1[C@H](Cc2ccc(O)cc2)N2C(=O)CCN(C(=O)NCc3ccccc3)[C@H]2CN1Cc1cccc2ccccc12 result=83.1%
molecule=CC(C)(C#N)c1cc(Cn2cncn2)cc(C(C)(C)C#N)c1 result=109%
molecule="CNCC(O)c1ccc(O)cc1 (stereo not given)" result=112%
molecule=CN(C)[S+](=O)([O-])c1ccc2c(c1)C(=Cc1cc3c([nH]1)CCCC3)C(=O)N2 result=109%
molecule=CC(C)(C)NC(=O)Nc1cccc(Nc2ncc(F)c(NC(C)(C)CO)n2)c1 result=135%

====

Tested on: SEM cells
assay-protocol: cell viability relative to DMSO control; higher = less cytotoxic
experimental-parameters: RPMI 5 mM glucose + 10% dialyzed FBS; 48 h; 0.0632 µM
Form field: cell viability (one value per entry).
value-type: cell viability (%)

compound=Cc1cnn(C)c1C(=O)Nc1cc(Nc2ccc3c(/C=C/c4ccccn4)n[nH]c3c2)ccc1F uom=% numeric_value=103
compound=Cc1ccccc1C(=O)c1ccc(Nc2ccc(Br)cc2N)cc1Cl uom=% numeric_value=112
compound=CCN(CC)CCCCNc1ncc2cc(-c3cc(OC)cc(OC)c3)c(NC(=O)NC(C)(C)C)nc2n1 uom=% numeric_value=97.7
compound=CC[C@H](/C=C/[C@@H](C)[C@H]1CC[C@H]2[C@@H]3CC=C4C[C@@H](O)CC[C@]4(C)[C@H]3CC[C@]12C)C(C)C uom=% numeric_value=111
compound="ClC1=CC=C(C=C1)C(C#N)C2=C(Cl)C=C(C=C2Cl)N3\\N=C/C(=O)NC3=O (stereo unspecified)" uom=% numeric_value=106
compound=OC[C@H]1O[C@H]([C@H](O)[C@@H]1O)N2\C=C/C(=O)NC2=O uom=% numeric_value=92.8
compound="COc1ccccc1OCC(O)COC(N)=O (stereo unspecified)" uom=% numeric_value=106
compound=NNCCc1ccccc1 uom=% numeric_value=127
compound="O=C(O)C1(Cc2cccc(Nc3nccs3)n2)CCC(Oc2cccc(Cl)c2F)CC1 (stereo unspecified)" uom=% numeric_value=95.1
compound=C[S+](=O)([O-])Nc1ccc([N+](=O)[O-])cc1Oc1ccccc1 uom=% numeric_value=109
compound="Cc1nn(Cc2ccccc2Cl)c(C)c1CN(C)CC(O)COc1ccc(Cl)cc1 (stereo unspecified)" uom=% numeric_value=113
compound=C[C@]12COC(=O)C[C@@H]1CC[C@@H]1[C@@H]2CC[C@@]2(C)[C@H]1CC[C@]2(C)O uom=% numeric_value=121
compound=COC(=O)Nc1cc(Nc2cc(NC3CC3)c3ncc(C#N)n3n2)c(Cl)c(N2CCN(C)CC2)c1 uom=% numeric_value=103
compound=C[C@@H](Oc1cc(-c2cnn(C3CCNCC3)c2)cnc1N)c1c(Cl)ccc(F)c1Cl uom=% numeric_value=97.1
compound=CC[S+](=O)([O-])c1cccc(-c2cc(C(=O)NC3CCN(C)CC3)c(C)c3[nH]c4ncc(C)cc4c23)c1 uom=% numeric_value=118
compound="OC(c1cc(C(F)(F)F)nc2c(C(F)(F)F)cccc12)C1CCCCN1 (stereo unspecified)" uom=% numeric_value=135
